experiment: Isoelectric point, log D and log P (SiriusT3); type: physicochemical; settings: 25±1° C., 0.15 M KCl
Residues, ends and D or L forms follow the SMILES beside them.
observedProperty: IP (isoelectric point)
Form: value (number only, do not type unit).

Value of measured IP (isoelectric point) for the entry CC[C@H](C)[C@H](NC(C)=O)C(=O)N[C@@H](Cc1c[nH]cn1)C(=O)N[C@H](C(=O)N[C@H](C(=O)N[C@H](C(=O)N1CCC[C@H]1C(=O)N[C@@H](C)C(=O)N[C@@H](CCC(=O)O)C(=O)N[C@@H](CC(C)C)C(=O)N[C@@H](Cc1c[nH]c2ccccc12)C(=O)N[C@@H](CC(=O)O)C(=O)N[C@@H](Cc1c[nH]c2ccccc12)C(=O)N[C@H](C(=O)N[C@@H](CC(N)=O)C(=O)N[C@@H](CCCCN)C(N)=O)[C@@H](C)CC)[C@@H](C)CC)[C@@H](C)O)C(C)C [SEQ ID NO: 5] (Ac-IHVTIPAELWDWINK-NH2) : 5.19
